Biological target: GppNHp KRAS G12D (Homo sapiens, UniProt P01116, G12D)
Sequence (P01116 1-188 isoform P01116-2 G12D): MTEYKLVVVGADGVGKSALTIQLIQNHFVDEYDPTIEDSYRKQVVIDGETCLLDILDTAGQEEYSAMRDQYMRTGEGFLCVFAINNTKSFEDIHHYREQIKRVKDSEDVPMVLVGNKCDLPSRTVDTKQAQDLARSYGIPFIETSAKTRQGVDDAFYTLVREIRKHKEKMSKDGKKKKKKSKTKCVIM
Experiment: SPR binding affinity, GppNHp KRAS G12D
Settings: GppNHp-bound KRAS G12D
pKd: −log10 of the molar value.
quantity: pKd

molecule	quantity	result
Nc1nc2c(-c3c(C(F)(F)F)cc4c(N5CC6CCC(C5)N6)nc(OC[C@@]56CCCN5C[C@H](F)C6)nc4c3F)ccc(F)c2s1 (single isomer, unassigned) [Compound 246]	pKd	5.00 to 6.00
Nc1nc2c(-c3c(C(F)(F)F)cc4c(N5CC6CCC(C5)N6)nc(OC[C@@]56CCCN5C[C@H](F)C6)nc4c3F)ccc(F)c2s1 (single isomer, unassigned) [Compound 245]	pKd	≥ 7.00
N#Cc1c(N)sc2c(F)ccc(-c3c(C(F)F)cc4c(N5C[C@H]6CC[C@@H](C5)N6)nc(OC[C@@]56CCCN5C[C@H](F)C6)nc4c3F)c12	pKd	≥ 7.00
